# assayedTarget: Monoamine oxidase (Mesocricetus auratus)
metricName: IC50 (µM)

Here's what some known entries look like.
>>> val("O=C(O)CCCCOc1ccc2c(=O)c(-c3ccc(O)cc3)coc2c1")
5
>>> val("CCOC(=O)CCCCCOc1ccc2c(=O)c(-c3ccc(O)cc3)coc2c1")
5.3

[A] O=C(O)CCCCCCCOc1ccc2c(=O)c(-c3ccc(O)cc3)coc2c1
[B] CC(C)Oc1ccc2c(=O)c(-c3ccc(O)cc3)coc2c1
-- ask Which record shows the lower IC50: the first, A , or the second, B ? Your choice should be expressed through its label.
-- reply B

----------
This document collects IC50 values reported for Monoamine oxidase (Mesocricetus auratus).

>>> val("CCCCC(Oc1ccc2c(=O)c(-c3ccc(O)cc3)coc2c1)C(=O)OCC (stereo not given)")
">> 9 uM"
>>> val("NCCCCOc1ccc2c(=O)c(-c3ccc(O)cc3)coc2c1")
"> 9 µM"
>>> val("C=CCCCCOc1ccc2c(=O)c(-c3ccc(O)cc3)coc2c1")
"5 µM"
>>> val("NCCCCCCOc1ccc2c(=O)c(-c3ccc(O)cc3)coc2c1")
">> 9 uM"
>>> val("O=C(O)CCCCCOc1ccc2c(=O)cc(-c3ccc(O)cc3)oc2c1")
"7 µM"

Lab note: next compound to report on.
-- ask Give IC50 for the following compound: `CCOC(=O)CCCCOc1ccc2c(=O)c(-c3ccc(O)cc3)coc2c1`
-- reply > 9 µM
